Target: human PD-L1 (cell surface) (human, UniProt Q9NZQ7)
Sequence (Q9NZQ7 19-238): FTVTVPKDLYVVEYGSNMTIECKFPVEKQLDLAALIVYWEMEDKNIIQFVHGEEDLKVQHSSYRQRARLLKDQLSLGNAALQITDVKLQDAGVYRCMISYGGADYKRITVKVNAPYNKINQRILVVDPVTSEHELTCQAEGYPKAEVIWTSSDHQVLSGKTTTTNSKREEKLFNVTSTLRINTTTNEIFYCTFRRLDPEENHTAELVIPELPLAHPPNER
Assay: FACS
So I've got a bunch of binders here, and I need their pEC50 values.
Numbers only, as −log10 of the molar value.

Here are 3 binders together with their reported answers.
binder	pEC50
R2-4E2 (antibody, V domains shown) VH: EVQLVESGGGSVQDGGSLTLSCAASGFSAGDVVMAWYRQAPGKQREFVANIAASSTTRYTDSVKGRFTISRDNAKNTVYLQMNSLKSEDTAVYYCNALVWNGSSYNNWGQGTQVTVSS	9.83
R2-1F4 (antibody, V domains shown) VH: QVQLVESGGGLVQAGGSLRLSCAASGFSASDVVMAWYRQAPGKQREFVANIAASSTTRYADSVKGRFTISRDDAKNTVSLQMNSLKSEDTAVYYCNALVWNGSSYNNWGQGTQVTVSS	9.66
R3-5F8 (antibody, V domains shown) VH: EVQLVESGGGLVQPGGSLRLSCVASGFDFSDTHMGWYRQAPGKERELVAIITSGGSTDYVDSVKGRFTISRDNAKNTVYLQMNSLKFEDTAVYYCNARRTTIYWGQGTQVTVSS	9.28

# return pEC50 for each item in the list
1. R2-5C12 (antibody, V domains shown) VH: QVQLVESGGGLVQAGGSLRLSCAASGFSASDVVMAWYRQAPGKQREFVANIAARGSTDYANSVKGRFTISRDNAKNTVYLQMNSLKSDDTAVYYCNALVWNGSSYNNWGQGTQVTVSS
2. R3-2A11 (antibody, V domains shown) VH: QVQLVESGGDLVQPGGSLRLSCAASGIDFSDTHMGWYRQAPGKQRELVALITSGGFTDYPDSVKGRFTISRDNAKNTMYLQMNTLKLEDTAVYYCNARRTTIYWGQGTQVTVSS

[9.62, 8.94]
